Source: PubChem BioAssay AID1159580

As shown below, each of these molecules has a reported normalized growth value.
- Assay protocol: chemical genetic growth profiling, strain panel (AID 1159580);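 also: tested at 20 µM; growth read once vehicle control cultures reached saturation at 30 °C; 1 = growth at the plate median or of vehicle wells; lower values mean less growth of the strain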
- Applied conditions: S. cerevisiae deletion strains, growth OD, locus YAL021C, strain ccr4, hits give low values
In all, about 5,500 compounds went through this assay and about 2,000 (36%) were called active. About 18% were inconclusive and are not listed. The list shows a part of the results.
Reply with just the number.

Known normalized growth results, listed for orientation:
{"columns": ["Molecule", "normalized growth"],
 "data": [
  ["CC(=O)Oc1c(C)c(C)c2c(c1C)CCC(C)(CCCC(C)CCCC(C)CCCC(C)C)O2 (stereo not given)", 1],
  ["COc1cc([C@@H]2c3cc4c(cc3[C@H](O)[C@H]3COC(=O)[C@H]23)OCO4)cc(OC)c1OC", 1],
  ["CCCCN(CC)c1c([N+](=O)[O-])cc(C(F)(F)F)cc1[N+](=O)[O-]", 0.998]
]}

Prompt: Give me measured normalized growth, please, for this molecule: O=c1c(O)c(-c2ccccc2)oc2ccccc12
Response: 0.424

Prompt: For the molecule CC(NC(C)(C)C)C(=O)c1cccc(Cl)c1 (stereo not given) , give its reported normalized growth.
Response: 1.02

Prompt: Supply recorded normalized growth for CCC1(C2=NCCN2)Cc2ccccc2O1 (stereo not given) here.
Response: 0.996

Prompt: Identify measured normalized growth corresponding to NC(=NCCCCCCN=C(N)N=C(N)Nc1ccc(Cl)cc1)N=C(N)Nc1ccc(Cl)cc1
Response: 0.0662

Prompt: Specify reported normalized growth for the molecule shown: CC12CCC(O)CC1CCc1ccccc12 (stereo not given)
Response: 0.993

Prompt: Give reported normalized growth value for CC12CCC(OC(=O)c3ccccc3)CC1CCc1ccccc12 (stereo not given)
Response: 0.986

Prompt: Return normalized growth for the following molecule: CC1CC(OC(=O)c2ccccc2O)CC(C)(C)C1 (stereo not given)
Response: 0.977
